Entries annotated with measured Particle size distribution (Alpine AJS) >180 μm
settings: mass fraction retained on 180 μm sieve; 10 g sample, 3 min sieving
Numeric answer only, unit % assumed.

Please review the entries below; each comes with its answer.
O=C1CN(/N=C/c2ccc([N+](=O)[O-])o2)C(=O)N1 [Example 5b, nitrofurantoin anhydrate] = 52
O=C1CN(/N=C/c2ccc([N+](=O)[O-])o2)C(=O)N1 [Comparison Example 9, nitrofurantoin anhydrate, reference compound] = 89
O=C1CN(/N=C/c2ccc([N+](=O)[O-])o2)C(=O)N1 [Example 5a, nitrofurantoin anhydrate] = 51
O=C1CN(/N=C/c2ccc([N+](=O)[O-])o2)C(=O)N1 [Example 6, nitrofurantoin anhydrate] = 10
O=C1CN(/N=C/c2ccc([N+](=O)[O-])o2)C(=O)N1 [Example 3, nitrofurantoin anhydrate] = 68

Note Particle size distribution (Alpine AJS) >180 μm for the compound shown: O=C1CN(/N=C/c2ccc([N+](=O)[O-])o2)C(=O)N1 [Example 4, nitrofurantoin anhydrate]
80

Note Particle size distribution (Alpine AJS) >180 μm for the compound shown: O=C1CN(/N=C/c2ccc([N+](=O)[O-])o2)C(=O)N1 [Example 7, nitrofurantoin anhydrate]
36

----------
Conditions: mass fraction retained on 75 μm sieve; 10 g sample, 3 min sieving
Procedure: In general, the method for carrying out an air jet sieving procedure is as follows. Together with sample material the sieve is placed on the unit and covered with a lid. […] The material remaining on the sieve can then be weighed, allowing the amount of the sample having a particle size greater than the aperture of the mesh to be calculated. […] The sieve was tared. […] At the end of the sieving process, the sieve was weighed and the mass of particles remained on the sieve was determined. […]
MEASURED METRIC: Particle size distribution (Alpine AJS) >75 μm (%)
Numeric answer only, unit % assumed.

O=C1CN(/N=C/c2ccc([N+](=O)[O-])o2)C(=O)N1 [Example 4, nitrofurantoin anhydrate] = 99

Note Particle size distribution (Alpine AJS) >75 μm for the molecule shown: O=C1CN(/N=C/c2ccc([N+](=O)[O-])o2)C(=O)N1 [Example 2a, nitrofurantoin anhydrate]
98

Note Particle size distribution (Alpine AJS) >75 μm for the molecule shown: O=C1CN(/N=C/c2ccc([N+](=O)[O-])o2)C(=O)N1 [Comparison Example 9, nitrofurantoin anhydrate, reference compound]
99

Note Particle size distribution (Alpine AJS) >75 μm for the molecule shown: O=C1CN(/N=C/c2ccc([N+](=O)[O-])o2)C(=O)N1 [Example 6, nitrofurantoin anhydrate]
87

Note Particle size distribution (Alpine AJS) >75 μm for the molecule shown: O=C1CN(/N=C/c2ccc([N+](=O)[O-])o2)C(=O)N1 [Example 3, nitrofurantoin anhydrate]
97

Note Particle size distribution (Alpine AJS) >75 μm for the molecule shown: O=C1CN(/N=C/c2ccc([N+](=O)[O-])o2)C(=O)N1 [Example 2c, nitrofurantoin anhydrate]
98

Note Particle size distribution (Alpine AJS) >75 μm for the molecule shown: O=C1CN(/N=C/c2ccc([N+](=O)[O-])o2)C(=O)N1 [Example 2b, nitrofurantoin anhydrate]
98

Note Particle size distribution (Alpine AJS) >75 μm for the molecule shown: O=C1CN(/N=C/c2ccc([N+](=O)[O-])o2)C(=O)N1 [Example 5b, nitrofurantoin anhydrate]
95

Note Particle size distribution (Alpine AJS) >75 μm for the molecule shown: O=C1CN(/N=C/c2ccc([N+](=O)[O-])o2)C(=O)N1 [Example 7, nitrofurantoin anhydrate]
94

Note Particle size distribution (Alpine AJS) >75 μm for the molecule shown: O=C1CN(/N=C/c2ccc([N+](=O)[O-])o2)C(=O)N1 [Example 1, nitrofurantoin anhydrate]
99

Note Particle size distribution (Alpine AJS) >75 μm for the molecule shown: O=C1CN(/N=C/c2ccc([N+](=O)[O-])o2)C(=O)N1 [Example 5a, nitrofurantoin anhydrate]
96

Note Particle size distribution (Alpine AJS) >75 μm for the molecule shown: O=C1CN(/N=C/c2ccc([N+](=O)[O-])o2)C(=O)N1 [Example 5c, nitrofurantoin anhydrate]
93

----------
Details: mass fraction passing 425 μm sieve; 10 g sample, 3 min sieving
Description: In general, the method for carrying out an air jet sieving procedure is as follows. Together with sample material the sieve is placed on the unit and covered with a lid. […] The material remaining on the sieve can then be weighed, allowing the amount of the sample having a particle size greater than the aperture of the mesh to be calculated. […] The sieve was tared. […] At the end of the sieving process, the sieve was weighed and the mass of particles remained on the sieve was determined. […]
MEASURED METRIC: Particle size distribution (Alpine AJS) <425 μm (%)
Numeric answer only, unit % assumed.

Please review the entries below; each comes with its answer.
O=C1CN(/N=C/c2ccc([N+](=O)[O-])o2)C(=O)N1 [Example 2c, nitrofurantoin anhydrate] = 95
O=C1CN(/N=C/c2ccc([N+](=O)[O-])o2)C(=O)N1 [Comparison Example 9, nitrofurantoin anhydrate, reference compound] = 27
O=C1CN(/N=C/c2ccc([N+](=O)[O-])o2)C(=O)N1 [Example 1, nitrofurantoin anhydrate] = 96

Note Particle size distribution (Alpine AJS) <425 μm for the compound shown: O=C1CN(/N=C/c2ccc([N+](=O)[O-])o2)C(=O)N1 [Example 2b, nitrofurantoin anhydrate]
98
